system: Danio rerio embryo; assay: BMC10 any morphological effect or mortality at 120 hpf; higher = less toxic
measured.attribute: BMC10 any morphological effect or mortality

Below, each entry is followed by its recorded BMC10 any morphological effect or mortality result.
O.O=c1c(O)c(-c2ccc(O)c(O)c2)oc2cc(O)cc(O)c12 [Quercetin]: > 100 µM
Cc1cnc(-c2ccccc2C(C)C)nc1NCc1ccc(-n2ccnn2)cc1 [ML-323]: 9.11 µM
O=c1c(O)cc([C@H]2Oc3cc(O)cc(O)c3C[C@H]2O)cc2c([C@H]3Oc4cc(O)cc(O)c4C[C@H]3O)cc(O)c(O)c12 [Theaflavin]: > 100 µM
COc1ccc(C[C@H]2COC(=O)[C@@H]2Cc2ccc(O[C@@H]3O[C@H](CO)[C@@H](O)[C@H](O)[C@H]3O)c(OC)c2)cc1OC [Arctiin]: > 100 µM
Cl.c1ccc([C@H]2CN3CCSC3=N2)cc1 [(-)-Levamisole]: > 100 µM

For every listed record, write down its BMC10 any morphological effect or mortality.
1. O=C(c1ccccc1)c1ccc2nc(NC(=O)c3csc(C4CCN(c5ncnc6ccsc56)CC4)n3)[nH]c2c1
2. COc1ccc(-c2oc3cc(OC)c(OC)c(O)c3c(=O)c2OC)cc1O [Casticin]

Key:
> 100 µM
1.26 µM

----------
Please go through the items and note down their BMC10 any morphological effect or mortality.
system: Danio rerio embryo; test: BMC10 any morphological effect or mortality at 120 hpf; higher = less toxic

CC(C)(C)NC(=O)N[C@H](C(=O)N1C[C@H]2[C@@H]([C@H]1C(=O)NC(CC1CCC1)C(=O)C(N)=O)C2(C)C)C(C)(C)C (stereo partly specified) [Boceprevir]: > 100 µM
CN(C)CCCNC(=O)c1ccc(-c2cc(O)c3ncccc3c2)cc1 [ML-324]: 15.9 µM

For every listed record, write down its BMC10 any morphological effect or mortality.
1. CCCCCCCC/C=C\CCCCCCCCCCCCCC(=O)O [Nervonic acid]
2. CC(O)(P(=O)([O-])O)P(=O)([O-])O.[Na+].[Na+] [Etidronic acid]
3. OC1=CC(OC)=C(C(CC(C2=CC=C(O)C=C2)O3)=O)C3=C1C/C=C(C)/C (stereo unspecified) [Isoxanthohumol]
4. Nc1nc(=O)c2ncn(CCC(CO)CO)c2[nH]1 [Penciclovir]
5. CCCC(CCC)C(=O)O [Valproic acid]
6. Cc1cn([C@H]2C[C@H](N=[N+]=[N-])[C@@H](CO)O2)c(=O)[nH]c1=O [Zidovudine]

Key:
1. 30.9 µM
2. > 100 µM
3. > 100 µM
4. > 100 µM
5. > 100 µM
6. > 100 µM

----------
test system: Danio rerio embryo; experiment: LEL larval photomotor response dark phase 120 hpf
Please go through the items and note down their LEL larval photomotor response dark phase 120 hpf.

Below, each entry is followed by its recorded LEL larval photomotor response dark phase 120 hpf result.
Cl.Clc1ccc(Cn2c(CN3CCCC3)nc3ccccc32)cc1: > 100 µM
O=C(Nc1ccccc1F)N[C@H]1N=C(c2ccccc2)c2ccccc2NC1=O: > 100 µM
O=c1cc(-c2ccccc2)oc2cc(O)cc(O)c12: 11.1 µM
C[C@H]1CCC/C=C/[C@@H]2C[C@H](O)C[C@H]2[C@H](O)/C=C/C(=O)O1: > 100 µM
COC(=O)C1=C(C)N=C(c2ncc(F)cc2F)NC1c1ccc(F)cc1Cl (racemic) [(±)-BAY 41-4109]: > 100 µM

For every listed record, write down its LEL larval photomotor response dark phase 120 hpf.
1. CS(=O)(=O)O.CS(=O)(=O)O.N=C(N)Nc1ccc(C(=O)Oc2ccc3cc(C(=N)N)ccc3c2)cc1
2. O=C(N/N=C/c1ccc(O)c(O)c1)c1cc2ccccc2cc1O
3. COc1ccc(C(=O)O[C@H]2[C@H](O[C@@H]3[C@@H](OC(C)=O)[C@H](O[C@H]4C[C@H]5[C@@H]6CC=C7C[C@@H](O)CC[C@]7(C)[C@H]6CC[C@]5(C)[C@@]4(O)[C@H](C)C(=O)CCC(C)C)OC[C@@H]3O)OC[C@@H](O)[C@@H]2O)cc1
4. C[C@@H]1CC[C@H]2[C@@H](C)C(=O)O[C@@H]3O[C@@]4(C)CC[C@@H]1[C@]32OO4

Key:
> 100 µM
> 100 µM
0.14 µM
3.7 µM

For every listed record, write down its LEL larval photomotor response dark phase 120 hpf.
1. O=c1c(O)c(-c2ccc(O)cc2)oc2cc(O)cc(O)c12
2. COc1ccc2c(c1)CC[C@@H]1[C@@H]2CC[C@]2(C)[C@@H](NCCCCCCN3C(=O)C=CC3=O)CC[C@@H]12
3. C[C@H]1O[C@@H](O[C@H]2CC[C@@]3(C)[C@@H](CC[C@]4(C)[C@@H]3C=C[C@]35OC[C@@]6(CCC(C)(C)C[C@H]63)[C@@H](O)C[C@]54C)[C@]2(C)CO)[C@H](O)[C@@H](O[C@@H]2O[C@H](CO)[C@@H](O)[C@H](O)[C@H]2O)[C@H]1O
4. C=CC(C)(C)c1cc(/C=C/C(=O)c2ccc(O)cc2)c(OC)cc1O
5. CCC(CC)O[C@@H]1C=C(C(=O)O)C[C@H](N)[C@H]1NC(C)=O

Key:
> 100 µM
> 100 µM
> 100 µM
> 100 µM
> 100 µM

For every listed record, write down its LEL larval photomotor response dark phase 120 hpf.
1. CC(C)c1cccc(=O)c(O)c1
2. Fc1ccc(CNc2ncnc3ccc(F)cc23)cc1
3. COc1c(C)c2c(c(O)c1C/C=C(\C)CCC(=O)O)C(=O)OC2
4. CC(=O)Oc1ccccc1C(=O)Nc1ncc([N+](=O)[O-])s1 [Nitazoxanide]
5. CC(=O)c1c(O)c(C)c(O)c2c1OC1=CC(=O)C(C(C)=O)C(=O)C12C (stereo not drawn)
6. O=C(NCc1ccco1)c1ccc2c(c1)N(Cc1c(F)cccc1Cl)C(=O)CS2
7. CC(C)(Sc1cc(C(C)(C)C)c(O)c(C(C)(C)C)c1)Sc1cc(C(C)(C)C)c(O)c(C(C)(C)C)c1

Key:
1: > 100 µM; 2: 1.23 µM; 3: > 100 µM; 4: > 100 µM; 5: > 100 µM; 6: > 100 µM; 7: > 100 µM

For every listed record, write down its LEL larval photomotor response dark phase 120 hpf.
1. O=C(Nc1ncc([N+](=O)[O-])s1)c1ccccc1O [Tizoxanide]
2. COC(=O)c1cc(OC)c2c(c1-c1c(CO)cc(OC)c3c1OCO3)OCO2
3. Cc1ccc(NC(=O)C(=O)NC2CC(C)(C)NC(C)(C)C2)cc1
4. CC(C)[C@H](NC(=O)[C@H](CCCNC(=N)N)NC(=O)NC(Cc1ccccc1)C(=O)O)C(=O)NC(C=O)CCCNC(=N)N.Cl.Cl (stereo partly drawn) [Antipain]
5. CCC(C)n1ncn(-c2ccc(N3CCN(c4ccc(OC[C@H]5CO[C@](Cn6cncn6)(c6ccc(Cl)cc6Cl)O5)cc4)CC3)cc2)c1=O (stereo partly drawn)
6. Cc1cnc(-c2ccccc2C(C)C)nc1NCc1ccc(-n2ccnn2)cc1

Key:
["> 100 µM", "> 100 µM", "33.3 µM", "> 100 µM", "0.41 µM", "> 100 µM"]

The recorded LEL larval photomotor response dark phase 120 hpf with Danio rerio embryo for "COc1ccc2nc3cc(Cl)ccc3c(Nc3cc(CN4CCCC4)c(O)c(CN4CCCC4)c3)c2n1.O=P(O)(O)O.O=P(O)(O)O.O=P(O)(O)O.O=P(O)(O)O" was > 100 µM
